From: patent US20220033501A1

Parameter koff: see the listing below.
# measured-target: T1, human TIM-3 ECD (antigen protein of the affinity test) (human, UniProt Q8TDQ0 22-200)
# T1 sequence: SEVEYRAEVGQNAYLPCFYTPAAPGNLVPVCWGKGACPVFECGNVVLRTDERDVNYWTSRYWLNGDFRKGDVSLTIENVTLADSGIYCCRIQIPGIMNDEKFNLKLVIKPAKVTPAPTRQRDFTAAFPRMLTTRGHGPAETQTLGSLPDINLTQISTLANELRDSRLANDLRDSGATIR
# test: AHC sensor kinetics, antibody captured on sensor, antigen protein in solution, global 1:1 fit
Reply numerically in s⁻¹, unit not repeated.

Answered examples (2):
binder: fully human TIM-3 antibody 57F4E5 (antibody, human IgG4, V domains shown, also called antibody number 7) VH: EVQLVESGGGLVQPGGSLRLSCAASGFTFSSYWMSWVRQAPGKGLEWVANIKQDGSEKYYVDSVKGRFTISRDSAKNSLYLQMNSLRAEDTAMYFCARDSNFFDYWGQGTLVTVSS VL: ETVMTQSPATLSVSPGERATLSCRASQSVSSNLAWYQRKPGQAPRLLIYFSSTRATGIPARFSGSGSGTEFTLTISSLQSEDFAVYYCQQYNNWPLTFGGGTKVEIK
recorded-number: 0.00397
--
binder: fully human TIM-3 antibody 34B6D8 (antibody, human IgG4, V domains shown, also called antibody number 5) VH: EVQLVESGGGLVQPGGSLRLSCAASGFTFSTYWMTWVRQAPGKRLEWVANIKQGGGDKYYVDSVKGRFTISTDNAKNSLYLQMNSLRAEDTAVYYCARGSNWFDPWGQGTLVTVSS VL: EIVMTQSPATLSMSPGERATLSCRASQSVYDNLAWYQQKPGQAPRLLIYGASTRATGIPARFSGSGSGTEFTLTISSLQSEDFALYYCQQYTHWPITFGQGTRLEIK
recorded-number: 0.0012

Shift focus to the following entry.
The binder listed as fully human TIM-3 antibody 18D2H2 (antibody, human IgG4, V domains shown, also called antibody number 2) VH: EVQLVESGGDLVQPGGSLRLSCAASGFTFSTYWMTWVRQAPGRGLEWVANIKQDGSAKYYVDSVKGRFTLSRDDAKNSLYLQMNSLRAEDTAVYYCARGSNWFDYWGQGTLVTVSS VL: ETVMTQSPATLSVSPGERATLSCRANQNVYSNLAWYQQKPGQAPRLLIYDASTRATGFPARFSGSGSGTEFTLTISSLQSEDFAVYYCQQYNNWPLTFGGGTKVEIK has a reported koff of 0.00313
